Recorded melting point by entry
readout_name: melting point

molecule	observed_measurement
CC(C)(C)NC(=O)c1nn(-c2ccc(F)cc2)c2c1C1CCC2C1 (centres unmarked)	131 to 133 °C
CC(C)(NC(=O)c1nn(-c2ccc(F)cc2F)c2c1C1CC3CC(C1)CC2C3)c1ccccc1	150 to 152 °C
O=C(Nc1ccccc1)c1nn(-c2ccc(Cl)cc2)c2c1C1CCC2C1 (centres unmarked)	137 to 140 °C
O=C(NCc1ccc(Cl)cc1Cl)c1nn(-c2ccc(Cl)cc2Cl)c2c1C1CCC2C1 (centres unmarked)	57 to 59 °C
O=C(Nn1cnnc1)c1nn(-c2ccc(Cl)cc2Cl)c2c1C1CCC2C1 (centres unmarked)	231 to 233 °C

###

Target: CB1 (Rattus norvegicus, UniProt P20272)
Sequence (P20272 whole entry): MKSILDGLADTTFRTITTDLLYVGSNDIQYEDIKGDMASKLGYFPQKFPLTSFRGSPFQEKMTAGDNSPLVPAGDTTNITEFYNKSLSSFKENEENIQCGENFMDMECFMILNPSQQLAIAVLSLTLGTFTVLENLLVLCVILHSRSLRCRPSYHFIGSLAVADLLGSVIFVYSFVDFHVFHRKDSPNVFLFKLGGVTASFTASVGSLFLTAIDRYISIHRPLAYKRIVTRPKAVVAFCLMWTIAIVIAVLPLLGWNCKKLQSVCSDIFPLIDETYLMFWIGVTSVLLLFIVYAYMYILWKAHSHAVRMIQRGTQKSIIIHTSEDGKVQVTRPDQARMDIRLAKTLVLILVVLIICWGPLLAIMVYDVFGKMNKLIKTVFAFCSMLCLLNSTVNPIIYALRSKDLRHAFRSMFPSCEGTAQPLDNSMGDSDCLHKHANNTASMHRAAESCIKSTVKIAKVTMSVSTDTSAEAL
Assay: Rat CB1 receptor binding using brain membrane, [3H]SR141716A displacement (Protocol I)
Design: CB1 receptor present in a rat brain membrane preparation; from tissue; host or cells: rat brain membrane
Conditions: rat brain membrane, [3H]SR141716A displacement
So basically: is % Displacement Protocol I under 50%? Then MET. Not under? Then NOT MET.

compound	qualitative_label
CN(NC(=O)c1nn(-c2ccc(Cl)cc2)c2c1C1CC3CC(C1)CC2C3)c1ccc(Cl)cc1Cl.Cl	NOT MET
CN(NC(=O)c1nn(-c2ccc(Cl)cc2)c2c1C1CC3CC(C1)CC2C3)c1ccc(Cl)cc1Cl	NOT MET
O=C(NN1CCCCC1)c1nn(-c2ccccc2Cl)c2c1C1CC3CC(C1)CC2C3	MET
O=C(NCc1ccccc1)c1nn(-c2ccc(Cl)cc2Cl)c2c1C1CC3CC(C1)CC2C3	MET
O=C(c1nn(-c2ccccc2)c2c1C1CC3CC(C1)CC2C3)N1CCCCC1	MET
O=C(Nc1ccccc1)c1nn(-c2ccc(Cl)cc2)c2c1C1CC3CC(C1)CC2C3	MET
Cn1nc(C(=O)NN2CCCCC2)c2c1C1CC3CC(CC2C3)C1 [Example 189b]	MET
O=C(NNc1ccc(Cl)c(Cl)c1)c1nn(-c2ccc(Cl)cc2)c2c1C1CCC2C1 (stereo not shown)	MET
O=C(NCc1ccccc1)c1nn(-c2ccccc2Cl)c2c1C1CC3CC(C1)CC2C3	MET
O=C(NN(c1ccccc1)c1ccccc1)c1nn(-c2ccc(Cl)cc2)c2c1C1CCC2C1 (stereo not shown)	NOT MET
O=C(NN1CCCCC1)c1nn(-c2ccccc2Br)c2c1C1CC3CC(C1)CC2C3	MET
CN(NC(=O)c1nn(-c2ccc(Cl)cc2Cl)c2c1C1CCC2c2ccccc21)C1CCCCC1 (stereo not shown)	NOT MET
O=C(NN1CCCCC1)c1nn(-c2ccc(Cl)cc2Cl)c2c1C1c3ccccc3C2C2C(=O)N(c3ccc(Cl)cc3)C(=O)C12 (stereo not shown)	MET

###

Each entry below carries its recorded melting point.
readout_name: melting point

compound	readout_name	observed_measurement
O=C(NNc1ccccc1)c1nn(-c2ccc(Cl)cc2Cl)c2c1C1CCC2C1 (stereo not shown) [Example 256]	melting point	182 to 185 °C
O=C(NNc1ncccc1Cl)c1nn(-c2ccc(Cl)cc2)c2c1C1CC3CC(C1)CC2C3 [Example 134]	melting point	200 to 203 °C
CCC(C)(C)NC(=O)c1nn(-c2ccc(F)cc2F)c2c1C1CCC2C1 (stereo not shown) [Example 313]	melting point	78 to 80 °C
O=C(NNc1ccccc1Br)c1nn(-c2ccc(Cl)cc2Cl)c2c1C1CC3CC(C1)CC2C3 [Example 176]	melting point	196 to 199 °C
O=C(Nc1ccc(F)cc1F)c1nn(-c2ccc(Cl)cc2Cl)c2c1C1CCC2C1 (stereo not shown) [Example 244]	melting point	152 to 155 °C
Cc1ccc(-n2nc(C(=O)NN3CCCCC3)c3c2C2CC4CC(CC3C4)C2)cc1 [Example 160]	melting point	228 to 232 °C
O=C(NNc1ccc(Cl)cn1)c1nn(-c2ccc(Cl)cc2)c2c1C1CC3CC(C1)CC2C3 [Example 135]	melting point	130 to 135 °C
